Test system: partially pure bovine brain farnesyl-protein transferase
Assay: Tetrapeptides tested as farnesylation substrates ([3H]FPP, TLC, autoradiography)
Type: biochemical
Settings: peptide 200 µM, 0.5 µM [3H] FPP, 30 min. at 30°C
Where a SMILES comes first, the peptide text is derived from it.
RESULT TYPE: Farnesylation substrate

CC(C)C[C@H](NC(=O)[C@@H](NC(=O)[C@@H](N)CO)C(C)C)C(=O)N[C@@H](CO)C(=O)O [SVLS] (H-SVLS-OH) = - (- < 1% conversion)
CC(C)C[C@@H](NC(=O)[C@@H](NC(=O)[C@@H](N)CS)C(C)C)C(=O)N[C@@H](CO)C(=O)O = - (- < 1% conversion)
CSCC[C@H](NC(=O)[C@@H](Cc1ccccc1)NC(=O)[C@@H](NC(=O)[C@@H](N)CS)C(C)C)C(=O)O = - (- < 1% conversion)

Every entry's value here was drawn from patent EP0520823A2.
